# system-under-test: P99 (Enterobacter cloacae)
# Sequence (P05364 21-381): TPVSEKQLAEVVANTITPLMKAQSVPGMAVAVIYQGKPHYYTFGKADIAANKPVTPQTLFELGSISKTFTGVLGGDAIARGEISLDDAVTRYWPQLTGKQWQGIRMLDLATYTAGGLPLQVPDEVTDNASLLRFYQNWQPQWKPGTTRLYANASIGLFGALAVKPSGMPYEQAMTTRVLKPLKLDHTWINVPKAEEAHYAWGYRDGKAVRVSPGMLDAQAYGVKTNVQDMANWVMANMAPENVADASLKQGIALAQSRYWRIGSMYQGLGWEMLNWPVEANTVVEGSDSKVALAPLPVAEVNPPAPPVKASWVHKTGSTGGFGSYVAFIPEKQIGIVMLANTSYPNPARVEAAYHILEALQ
# assay-method-text: Ki, nitrocefin cleavage by purified enzyme, P99
# test-parameters: nitrocefin reporter substrate; read-out: Ki (P99, NCF)
pKi: −log10 of the molar value.
For each record, write down the corresponding pKi.

Q) Give recorded pKi with P99 (Enterobacter cloacae) for the following compound: COc1ccc2c(c1C(=O)O)OB(O)[C@@H](NC(=O)c1nnc(N)s1)C2 [Compound 28]
A) 8.00 to 9.00

Q) Give recorded pKi with P99 (Enterobacter cloacae) for the following compound: COc1ccc2c(c1C(=O)O)OB(O)[C@@H](NC(=O)Cc1cccs1)C2 [Compound 29]
A) 8.00 to 9.00

Q) Give recorded pKi with P99 (Enterobacter cloacae) for the following compound: CSCC(=O)N[C@H]1Cc2c(F)cc(F)c(C(=O)O)c2OB1O [Compound 32]
A) < 8.00

Q) Give recorded pKi with P99 (Enterobacter cloacae) for the following compound: CSCC(=O)N[C@H]1Cc2ccc(SCC3CCNCC3)c(C(=O)O)c2OB1O [Compound 24]
A) < 8.00

Q) Give recorded pKi with P99 (Enterobacter cloacae) for the following compound: O=C(O)CC(=O)N[C@H]1Cc2ccc(F)c(C(=O)O)c2OB1O [Compound 4]
A) < 8.00

Q) Give recorded pKi with P99 (Enterobacter cloacae) for the following compound: O=CN[C@H]1Cc2ccc(F)c(C(=O)O)c2OB1O [Compound 6]
A) < 8.00

For every item in the list below, what is its measured pKi?
1. O=C(CSC1CNC1)N[C@H]1Cc2ccc(F)c(C(=O)O)c2OB1O [Compound 2]
2. O=C(CSC(F)F)N[C@H]1Cc2cccc(C(=O)O)c2OB1O [C, reference compound]
3. COc1ccc2c(c1C(=O)O)OB(O)[C@@H](NC(=O)CC(N)=O)C2 [Compound 27]

A)
1. < 8.00
2. 8.00 to 9.00
3. < 8.00

* * *

For each record, write down the corresponding pKi.
# system-under-test: OXA-48 (Klebsiella pneumoniae, UniProt Q6XEC0)
# Sequence (Q6XEC0 23-265, looked up, species assumed): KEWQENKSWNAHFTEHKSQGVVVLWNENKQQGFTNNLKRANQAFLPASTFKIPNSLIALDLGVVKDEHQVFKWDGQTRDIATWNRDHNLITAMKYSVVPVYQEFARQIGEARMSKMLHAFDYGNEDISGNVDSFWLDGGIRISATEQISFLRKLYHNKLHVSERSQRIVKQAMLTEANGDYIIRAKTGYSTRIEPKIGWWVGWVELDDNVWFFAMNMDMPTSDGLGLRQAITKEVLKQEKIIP
# assay-method-text: Ki, nitrocefin cleavage by purified enzyme, OXA-48
# test-parameters: nitrocefin reporter substrate; read-out: Ki (OXA-48, NCF)
pKi: −log10 of the molar value.

Below: 2 molecules and their reported pKi.
Q) Can you share its pKi? I mean this molecule: CSCC(=O)N[C@H]1Cc2ccc(SC3CNC3)c(C(=O)O)c2OB1O [Compound 11]
A) 8.00 to 9.00

Q) Can you share its pKi? I mean this molecule: CNC(=O)CC(=O)N[C@H]1Cc2ccc(F)c(C(=O)O)c2OB1O [Compound 7]
A) 8.00 to 9.00

For every item in the list below, what is its measured pKi?
1. O=C(O)CC(=O)N[C@H]1Cc2ccc(F)c(C(=O)O)c2OB1O [Compound 4]
2. O=CN[C@H]1Cc2ccc(F)c(C(=O)O)c2OB1O [Compound 6]

A)
1: > 9.00; 2: 8.00 to 9.00

* * *

# assay-method-text: Serum stability of prodrugs, rat serum
# Type: in vitro ADME
# test-parameters: prodrug, theoretical initial conc. 20 ug/mL
For each record, write down the corresponding Conc. at t = 1 hr.
Answers are plain numbers, in ng/mL.

Q) Can you share its Conc. at t = 1 hr? I mean this compound: CCC(=O)OCOC(=O)c1c(F)ccc2c1OB(O)[C@@H](NC(=O)CSC)C2
A) 400

Q) Can you share its Conc. at t = 1 hr? I mean this compound: CCOC(=O)OCOC(=O)c1c(OC)ccc2c1OB(O)[C@@H](NC(=O)CSC)C2
A) 400

Q) Can you share its Conc. at t = 1 hr? I mean this compound: CCOC(=O)OCOC(=O)c1c(F)ccc2c1OB(O)[C@@H](NC(=O)CSC)C2
A) 0

Q) Can you share its Conc. at t = 1 hr? I mean this compound: COc1ccc2c(c1C(=O)OCOC(=O)OC(C)C)OB(O)[C@@H](NC(=O)CSC)C2
A) 2710

Q) Can you share its Conc. at t = 1 hr? I mean this compound: COc1ccc2c(c1C(=O)OCOC(=O)C(C)C)OB(O)[C@@H](NC(=O)CSC)C2
A) 14100

Q) Can you share its Conc. at t = 1 hr? I mean this compound: CSCC(=O)N[C@H]1Cc2cc(F)c(F)c(C(=O)OCOC(=O)C(C)C)c2OB1O
A) 8850

Q) Can you share its Conc. at t = 1 hr? I mean this compound: CSCC(=O)N[C@H]1Cc2ccc(F)c(C(=O)OCOC(=O)c3ccccc3)c2OB1O
A) 11700

Now take the following compound into account.
Q) Can you share its Conc. at t = 1 hr? I mean this compound: CSCC(=O)N[C@H]1Cc2ccc(F)c(C(=O)OCOC(=O)C(C)(C)C)c2OB1O
A) 9390
